Assay Method Text: qHTS assay to identify small molecule antagonists of the androgen receptor (AR) signaling pathway using the MDA cell line in the presence of 0.5 nM R1881 - cell viability counter screen (AID 1259242); note: % is set by controls: 0 for no effect and ±100 for the full control effect; nearly all actives have a fitted effect of over 45% in size
Condition Info: MDA-kb2 viability, CellTiter-Fluor protease fluorescence, 16 h; series mostly up to 92.4 µM
Results filed as inconclusive are left out. Active and inactive are the calls of the source. Calls come from the whole dose curve; as a rule, active = well fitted cell-killing curve with a large enough effect in the repeat runs; inconclusive = weak or mixed curves, or effect the other way; inactive = flat fitted curve, though single readings scatter.
Recorded Endpoint: outcome

O=C(O)c1cc(-c2ccccc2)nc2ccccc12 :: inactive
Cc1cc(Cc2ccc(N)c(C)c2)ccc1N :: inactive
Nc1nc2ncc(CNc3ccc(C(=O)N[C@@H](CCC(=O)O)C(=O)O)cc3)nc2c(=O)[nH]1 :: inactive
CCc1ccccc1O :: inactive
CCOC(=O)/C=C\C(=O)OCC :: inactive
CC(=O)Nc1ccc(C(=O)O)cc1 :: inactive
CC1=C(/C=C/C(C)=C/C=C/C(C)=C/CO)C(C)(C)CCC1 :: inactive

====

Tested System: Peroxisome proliferator-activated receptor gamma (Homo sapiens)
Assay Method Text: qHTS assay to identify small molecule antagonists of the peroxisome proliferator-activated receptor gamma (PPARg) signaling pathway (AID 743191); note: nearly all actives have a fitted effect of over 30% in size
Condition Info: HEK293H PPARg-UAS-bla, beta-lactamase ratio, antagonist, 17 h; series mostly up to 62.6 µM
Records with an inconclusive call do not appear. Activity calls are given as the source filed them. The call rests on the fitted dose curve.
Classes used: 1 for active, 0 for inactive

CCOC(=O)[C@H](CCc1ccccc1)N[C@@H](C)C(=O)N1Cc2ccccc2C[C@H]1C(=O)O :: 0
Nc1cc(-c2ccncc2)c[nH]c1=O :: 0
O=C(Oc1ccccc1)c1ccc(O)cc1 :: 0
CCCCC(CC)COC(C)=O (stereo not given) :: 0
OCC#CCO :: 0
COCC(C)O (stereo not given) :: 0
O=[N+]([O-])C(CO)(CO)CO :: 0
Cc1ccc(N)c(S(=O)(=O)O)c1 :: 0
CCC(C)C=O (stereo not given) :: 0
CCc1ccc(O)cc1 :: 0
CCc1ccccc1O :: 0
CC[Si](OC(C)=O)(OC(C)=O)OC(C)=O :: 0
O=C1O[C@H](CO)[C@@H](O)[C@H](O)[C@H]1O :: 0
CC1COc2ccccc2N1C(=O)C(Cl)Cl (stereo not given) :: 1
CCOC(=O)C1OC1c1ccccc1 (stereo not given) :: 0

====

Assay Method Text: qHTS assay to identify small molecule agonists of the progesterone receptor (PR) signaling pathway - cell viability counter screen (AID 1346799); note: nearly all actives have a fitted effect of over 45% in size
Condition Info: PR-UAS-bla HEK293T viability, CellTiter-Glo luminescence, 16 h; series mostly up to 92.4 µM
Inconclusive results are not listed. The source made the active and inactive calls. The call rests on the fitted dose curve.
Classes used: 1.0 = active, 0.0 = inactive

COCC(=O)O :: 0.0
CCCCCCCCCCCCOCC1CO1 (stereo not drawn) :: 0.0
CC(C)(N=C=O)c1cccc(C(C)(C)N=C=O)c1 :: 0.0
Clc1ccc(Cl)c(Cl)c1Cl :: 0.0
Oc1ccc2ccccc2c1N=Nc1ccccc1 :: 0.0
CCc1ccccc1O :: 0.0
Nc1cc(-c2ccncc2)c[nH]c1=O :: 0.0
Cc1cc(NS(=O)(=O)c2ccc(N)cc2)no1 :: 0.0
Cc1ccc(C(=O)O)o1 :: 0.0
CCCCNC(N)=O :: 0.0
OC[C@@H](O)[C@@H](O)[C@H](O)[C@@H](O)CO :: 0.0
C[C@@H]1O[C@@H](OC[C@H]2O[C@@H](Oc3c(-c4ccc(O)c(O)c4)oc4cc(O)cc(O)c4c3=O)[C@H](O)[C@@H](O)[C@@H]2O)[C@H](O)[C@H](O)[C@H]1O :: 0.0
CC(C)n1c(/C=C/[C@@H](O)C[C@@H](O)CC(=O)O)c(-c2ccc(F)cc2)c2ccccc21 :: 1.0

====

Assay Method Text: qHTS assay to identify small molecule antagonists of the retinoid-related orphan receptor gamma (ROR-gamma) signaling pathway - cell viability counter screen (AID 1159520); note: % is set by controls: 0 for no effect and ±100 for the full control effect; nearly all actives have a fitted effect of over 50% in size
Condition Info: Tet-on RORgamma CHO cells viability, ATP luminescence, 16 h; series mostly up to 92.4 µM
Records with an inconclusive call do not appear. The source made the active and inactive calls. Calls follow the shape of the dose curve; as a rule, active = well fitted cell-killing curve with a large enough effect in the repeat runs; inconclusive = weak or mixed curves, or effect the other way; inactive = no such curve, though single readings can be large or run the other way.
Recorded Endpoint: outcome

CC1=CC[C@H]2C[C@@H]1C2(C)C :: inactive
CC1(C)CC(N=C=O)CC(C)(CN=C=O)C1 (centres undefined) :: inactive
NC(=O)/N=N/C(N)=O :: inactive
O=C1O[C@H](CO)[C@@H](O)[C@H](O)[C@H]1O :: inactive
Cn1c([N+](=O)[O-])cnc1COC(N)=O :: inactive
O=c1c(-c2ccc(O)cc2)coc2cc(O)ccc12 :: inactive
NS(=O)(=O)c1cc2c(cc1Cl)NC=NS2(=O)=O :: inactive
CC(C)NCC(O)COc1cccc2ccccc12 (centres undefined) :: inactive
O=S(=O)(O)c1cc(S(=O)(=O)O)c2c(N=Nc3ccccc3)c(O)ccc2c1 :: inactive
COCC(C)O (centres undefined) :: inactive
CCCCNC(N)=O :: inactive
CCCCC(CC)COC(C)=O (centres undefined) :: inactive
CC(C)Cc1ccccc1 :: inactive
Oc1ccc(OCc2ccccc2)cc1 :: inactive

====

Tested System: Peroxisome proliferator-activated receptor delta (Homo sapiens)
Assay Method Text: qHTS assay to identify small molecule antagonists of the peroxisome proliferator-activated receptor delta (PPARd) signaling pathway (AID 743215);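 note: cells stimulated with agonist L165041 at 300 nM final during compound exposure; % is set by controls: 0 for no effect and ±100 for the full control effect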
Condition Info: HEK293H PPARd-UAS-bla, beta-lactamase FRET ratio, antagonist, 17 h; series mostly up to 62 µM
Source text: U.S. Tox21 Program National Center for Advancing Translational Sciences [NCATS] NIH Chemical Genomics Center [NCGC] U.S. Environmental Protection Agency [EPA] National Institutes of Environmental Health Sciences [NIEHS] National Toxicology Program [NTP] U.S. Food and Drug Administration [FDA] […]
Inconclusive results are not listed. The source made the active and inactive calls. The call rests on the fitted dose curve; in most records, active means well fitted inhibition curve with a large enough effect in the signal ratio in the repeat runs (not every such curve was filed as active); inconclusive means weak or mixed curves, or effect the other way; inactive means no such curve, though single readings can be large or run the other way; the % refers to the signal ratio.
Recorded Endpoint: outcome

OCCOCCOCCOCCO :: inactive
Cc1ccc(N)c(S(=O)(=O)O)c1 :: inactive
O=C(O)c1cc(-c2ccccc2)nc2ccccc12 :: inactive

====

Tested System: Cytochrome P450 2C19 (Homo sapiens) (UniProt P33261)
Sequence (P33261 whole entry, looked up): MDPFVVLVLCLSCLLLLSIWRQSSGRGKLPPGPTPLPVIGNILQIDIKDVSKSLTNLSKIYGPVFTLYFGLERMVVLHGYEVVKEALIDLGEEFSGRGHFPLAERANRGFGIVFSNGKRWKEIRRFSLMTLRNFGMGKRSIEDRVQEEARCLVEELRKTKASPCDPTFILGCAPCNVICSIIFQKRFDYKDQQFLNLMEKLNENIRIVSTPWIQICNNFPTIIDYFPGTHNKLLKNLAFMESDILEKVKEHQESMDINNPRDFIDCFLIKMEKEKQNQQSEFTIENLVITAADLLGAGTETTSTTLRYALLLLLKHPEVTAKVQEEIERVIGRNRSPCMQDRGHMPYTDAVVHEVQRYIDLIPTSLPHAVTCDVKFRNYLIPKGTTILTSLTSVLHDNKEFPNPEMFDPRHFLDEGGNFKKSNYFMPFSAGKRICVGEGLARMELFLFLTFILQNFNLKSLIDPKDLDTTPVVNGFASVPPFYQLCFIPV
Assay Method Text: Cytochrome P450 Family 2 Subfamily C Member 19 (CYP2C19) small molecule antagonists: luciferase reporter qHTS assay (AID 1671197); note: nearly all actives have a fitted effect of over 65% in size
Condition Info: P450-Glo CYP2C19 enzyme, luciferin luminescence, 1 h; series mostly up to 115 µM
Records with an inconclusive call do not appear. Activity calls are given as the source filed them. The call rests on the fitted dose curve; in most records, active means well fitted inhibition curve with a large enough effect in the repeat runs; inconclusive means weak or mixed curves; inactive means no such curve, though single readings can be large or run the other way.
Classes used: active, inactive

Cn1c([N+](=O)[O-])cnc1COC(N)=O :: inactive
CCCCOCCO :: inactive
OC[C@@H](O)[C@H](O)[C@H](O)[C@@H](O)CO :: inactive
CCCCCC/C=C/CCCCCCCC(=O)O :: inactive
O=C(Cl)c1c(Cl)c(Cl)c(C(=O)Cl)c(Cl)c1Cl :: inactive
Clc1ccc(Cl)c(Cl)c1Cl :: active
CCOC(=O)C1OC1c1ccccc1 (stereo not given) :: active
O=[N+]([O-])c1cccc(Cl)c1 :: inactive
C[C@@H]1O[C@@H](OC[C@H]2O[C@@H](Oc3c(-c4ccc(O)c(O)c4)oc4cc(O)cc(O)c4c3=O)[C@H](O)[C@@H](O)[C@@H]2O)[C@H](O)[C@H](O)[C@H]1O :: inactive
Cc1ccc(C(=O)O)o1 :: inactive
C[C@@H](O)[C@H]1C(=O)N2C(C(=O)O)=C(S[C@@H]3CN[C@H](C(=O)N(C)C)C3)[C@H](C)[C@H]12 :: inactive
ClC1=C(Cl)C(Cl)(Cl)C(Cl)=C1Cl :: inactive
C=C(C)C(=O)OCCCCCCCCCCCC :: inactive
C=CC(=O)OCCCCCCCC(C)C :: inactive
OC[C@@H](O)[C@@H](O)[C@H](O)[C@@H](O)CO :: inactive

====

Assay Method Text: qHTS assay to identify aromatase inhibitors - cell viability counter screen (AID 743084);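 note: cells stimulated with testosterone during compound exposure; nearly all actives have a fitted effect of over 55% in size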
Condition Info: MCF-7 aro ERE viability, CellTiter-Fluor, 24 h; series mostly up to 70.3 µM
Records with an inconclusive call do not appear. Active and inactive are the calls of the source. The call rests on the fitted dose curve; in most records, active means well fitted cell-killing curve with a large enough effect in the repeat runs; inconclusive means weak or mixed curves, or effect the other way; inactive means no such curve, though single readings can be large or run the other way.
Classes used: T = active, F = inactive

O=Nc1ccc(O)cc1 :: F
CCCCCC/C=C/CCCCCCCC(=O)O :: F
CCCCC(CC)COC(=O)/C=C\C(=O)OCC(CC)CCCC (stereo not given) :: F
O=S(=O)(Oc1ccc(Cl)cc1Cl)c1ccccc1 :: F
CCCCCCCCCC(=O)O :: F
OCC#CCO :: F
Nc1c(S(=O)(=O)O)cc(Br)c2c1C(=O)c1ccccc1C2=O :: T
CC1=C(CC(=O)O)c2cc(F)ccc2/C1=C\c1ccc(S(C)=O)cc1 (stereo not given) :: F
c1ccc2[nH]cnc2c1 :: F
Cc1cc(=O)[nH]c(C(C)C)n1 :: F
COCC(=O)O :: F
O=C(Cl)c1c(Cl)c(Cl)c(C(=O)Cl)c(Cl)c1Cl :: F
O=C(O)c1ccc([N+](=O)[O-])cc1 :: F
CCOC(=O)C1OC1c1ccccc1 (stereo not given) :: F
CCCCNC(N)=O :: F
CC(=O)Nc1ccc(C(=O)O)cc1 :: F
CC(C)(C)C1CCC(O)CC1 (stereo not given) :: F
CCCCOCCO :: F
NC(=O)NNc1ccccc1 :: F
COC(=O)Nc1nc2ccc(Sc3ccccc3)cc2[nH]1 :: F
Oc1ccc2ccccc2c1 :: F
NS(=O)(=O)c1cc2c(cc1Cl)NC=NS2(=O)=O :: F
Cc1cc(NS(=O)(=O)c2ccc(N)cc2)no1 :: F
O=[N+]([O-])c1cccc(Cl)c1 :: F
C=C(C)C(=O)OCCCCCCCCCCCC :: F
Nc1cc(-c2ccncc2)c[nH]c1=O :: F
CCCCCCOC(C)=O :: F
OCC1CCCO1 (stereo not given) :: F
Clc1ccc(Cl)c(Cl)c1Cl :: F
CCCCCCCCC :: F
C=C(C#N)C(=O)OCC :: F
CC(C)NCC(O)COc1cccc2ccccc12 (stereo not given) :: F
CC#C[C@]1(O)CC[C@H]2[C@@H]3CCC4=CC(=O)CCC4=C3[C@@H](c3ccc(N(C)C)cc3)C[C@@]21C :: F
Nc1nc2ncc(CNc3ccc(C(=O)N[C@@H](CCC(=O)O)C(=O)O)cc3)nc2c(=O)[nH]1 :: F
CN(C)c1cccc(O)c1 :: F
O=c1c(-c2ccc(O)cc2)coc2cc(O)ccc12 :: F
O=[N+]([O-])C(CO)(CO)CO :: F
Oc1ccc(OCc2ccccc2)cc1 :: F
CCCCCCC(C)(C)S :: F
CS(=O)(=O)c1ccc([C@@H](O)[C@@H](CO)NC(=O)C(Cl)Cl)cc1 :: F
CC(C)(CO)COC(=O)C(C)(C)CO :: F
c1ccc2ccccc2c1 :: F
CCCCC(CC)COC(C)=O (stereo not given) :: F
Clc1cc(Cl)c(Cl)cc1Cl :: F
CC1(C)O[C@@H]2C[C@H]3[C@@H]4C[C@H](F)C5=CC(=O)CC[C@]5(C)[C@H]4[C@@H](O)C[C@]3(C)[C@]2(C(=O)CO)O1 :: F
Oc1c(Cl)cc(Cl)c(Cl)c1Cl :: F
CC(C)n1c(/C=C/[C@@H](O)C[C@@H](O)CC(=O)O)c(-c2ccc(F)cc2)c2ccccc21 :: F
C[C@@H](O)[C@H]1C(=O)N2C(C(=O)O)=C(S[C@@H]3CN[C@H](C(=O)N(C)C)C3)[C@H](C)[C@H]12 :: F
Cc1ccc(C(=O)O)o1 :: F
NC(=O)/N=N/C(N)=O :: F
